Tested on: SW480
ASSAY_REMARKS: cell viability (CellTiter-Glo) relative to plate median (fraction of plate median); higher = more viable cells
CONDITION_CONTEXT: 5 µM; treatment time 24 h; reporter: 7TFP
Provide the reported cell viability of each item.
Give bare numbers.

Example cases with answers are listed next.
[
  {
    "COMPOUND": "CO/N=C1\\CN(c2nc3c(cc2F)c(=O)c(C(=O)O)cn3C2CC2)CC1CN (centres undefined)",
    "cell viability": 0.995
  },
  {
    "COMPOUND": "CC(CN1c2ccccc2Sc2ccccc21)N(C)C (centres undefined)",
    "cell viability": 1.08
  },
  {
    "COMPOUND": "CO[C@H]1C[C@H](O[C@H]2[C@H](C)[C@@H](O[C@@H]3O[C@H](C)C[C@H](N(C)C)[C@H]3OC(C)=O)[C@@H](C)C[C@@]3(CO3)C(=O)[C@H](C)[C@@H](OC(C)=O)[C@@H](C)[C@@H](C)OC(=O)[C@@H]2C)O[C@@H](C)[C@@H]1OC(C)=O",
    "cell viability": 0.956
  }
]

Provide each entry's cell viability from the list below.
1. O=C(O)C1=CCCNC1
2. C[N+]1(C)[C@@H]2CC[C@H]1C[C@@H](OC(=O)C(O)c1ccccc1)C2 (some centres undefined)
3. COc1ccc(-c2coc3cc(OC)cc(OC)c3c2=O)cc1
4. CCOc1ccc(C(=O)c2cc(O)c(OC)c(OC)c2O)cc1

OUT:
1: 1; 2: 1.08; 3: 1.03; 4: 0.994

Provide each entry's cell viability from the list below.
1. OCc1cccnc1
2. C/C(=C\C(=O)OCCCCCCCCC(=O)O)C[C@@H]1OC[C@H](C[C@@H]2O[C@H]2[C@@H](C)[C@H](C)O)[C@@H](O)[C@H]1O

OUT:
0.934
0.939

meta.source: the supplement of paper PMC6522484
